subject.of.test: Adenosine receptor A1 (Rattus norvegicus, UniProt P25099)
Sequence (P25099 whole entry): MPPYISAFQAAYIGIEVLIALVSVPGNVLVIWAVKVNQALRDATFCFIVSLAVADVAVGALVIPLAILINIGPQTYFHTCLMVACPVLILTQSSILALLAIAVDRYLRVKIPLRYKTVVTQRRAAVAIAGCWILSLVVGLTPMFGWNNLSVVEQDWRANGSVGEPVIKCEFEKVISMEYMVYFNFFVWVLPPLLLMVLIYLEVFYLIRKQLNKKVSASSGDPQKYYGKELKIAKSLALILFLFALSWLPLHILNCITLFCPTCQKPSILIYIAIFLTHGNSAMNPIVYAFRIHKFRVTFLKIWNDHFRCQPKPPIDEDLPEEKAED
test: Binding affinity for Adenosine A1 receptor using N-[3H] cyclohexyladenosine in rat forebrain membranes
Assay type: cell membranes, Membrane
outcome.measure: Ki (nM)

(P) CCCn1c(=O)c2c(nc(/C=C/c3ccc(OC)c(OC)c3)n2C)n(CCC)c1=O.CCCn1c(=O)c2c(nc(/C=C\c3ccc(OC)c(OC)c3)n2C)n(CCC)c1=O
(Q) CCCn1c(=O)c2c(nc(/C=C/c3ccc(OC)c(OC)c3)n2C)n(CCC)c1=O
Q) Sorting ascending by Ki, which comes first: P or Q ? Lab note: record the label of whichever item you select.
A) Q
(Q: 62 nM, P: 390 nM)

---

test: Solubility as determined
Type: physicochemical
run.conditions: read-out: S
outcome.measure: solubility (µg/mL)
// note: answer is a bare numeric in µg/mL

Q) GET /values?readout=solubility&item= CCCn1c(=O)c2c(nc(/C=C/c3ccc(OC)c(OC)c3)n2C)n(CCC)c1=O
A) 0.06

---

subject.of.test: UniProt P25099
test: Binding affinity for Adenosine A1 receptor using N-[3H] cyclohexyladenosine in rat forebrain membranes under usual light
Assay type: cell membranes, Membrane
outcome.measure: Ki (nM)
// note: answer is a bare numeric in nM

Q) GET /values?readout=Ki&item= CCCn1c(=O)c2c(nc(/C=C/c3ccc(OC)c(OC)c3)n2C)n(CCC)c1=O.CCCn1c(=O)c2c(nc(/C=C\c3ccc(OC)c(OC)c3)n2C)n(CCC)c1=O
A) 430

These entries and their values trace back to ChEMBL document CHEMBL1127080.
